# Test system: perceived sweetness intensity
# assayRemarks: Strawberry consumer panel; initial multiple regression of volatiles against perceived sweetness intensity independent of glucose, fructose or sucrose (Table 5)
# Assay type: in vivo, human
# assaySetup: standard least squares, sweetness intensity independent of glucose
experimentalReadout: GLUCOSE t RATIO

- C=CC(C)(O)CC/C=C(\C)CCC=C(C)C (stereo not drawn) [40716-66-3]: 1.202
- CCCCC(=O)OC [624-24-8]: −0.416
- CCCCC(CC)CO (stereo not drawn) [104-76-7]: 0.982
- CCCCCC(=O)OC(C)C [2311-46-8]: −0.058
- CCCCCCCCOC(=O)C(C)CC (stereo not drawn) [29811-50-5]: −0.098
- CCCCCC=O [66-25-1]: 1.178
